Taken from ChEMBL document CHEMBL1201862.

System: TK-10
Method description: NCI tumour cell line growth inhibition, 48 h
Calls of active or inactive are those of the source. Cut-off read from the data, not from the text of the source: active = GI50 up to about 1.1 µM and inactive = higher.
Measured metric: GI50

INSERT INTO measurements (molecule, result) VALUES
  ('CN(C)c1ccc(/C=C2\CNC/C(=C\c3ccc(N(C)C)cc3)C2=O)cc1', '33.3 µM (inactive)'),
  ('COc1cc([C@@H]2c3cc4c(c(O)c3C[C@H]3COC(=O)[C@@H]32)OCO4)cc(OC)c1OC', '31.6 µM (inactive)'),
  ('NC(=O)c1nnc2c(F)cccc2c1N', '> 100 µM (inactive)'),
  ('COc1ccc(/C=C2\CN(C)CC3C2=NN(c2ccccc2)C3c2ccc(OC)cc2)cc1 (stereo unspecified)', '26.1 µM (inactive)'),
  ('CSc1ccc(/C=C/C(=O)c2nc3ccccc3[nH]2)cc1', '3.58 µM (inactive)'),
  ('C=C1N(C=O)C(C)(C)N(O)C1(C)C', '> 100 µM (inactive)'),
  ('O=C(O)CN1CCNCCNCC1', '> 100 µM (inactive)'),
  ('C#CCOCC12C=CC(O1)C1C(=O)OCC12 (stereo unspecified)', '> 100 µM (inactive)'),
  ('O=C(O)C12C3CCC(CC3)C1(C(=O)O)C1CCC2C1 (stereo unspecified)', '> 100 µM (inactive)'),
  ('CCCCCCNC(=O)c1cc(C#Cc2cc(OC)ccc2OC)ccc1OC', '> 100 µM (inactive)'),
  ('CC(C)CCNC(=O)c1ccc(CNC(=O)/C=C/c2cccc(Oc3ccccc3)c2)cc1', '22.6 µM (inactive)');

====

Tested on: HT-29
Method description: NCI tumour cell line growth inhibition, 48 h
The source made the active and inactive calls. Rule as the data show it: active = GI50 up to about 1.1 µM and inactive = higher.
Classes used: Yes = active, No = inactive

INSERT INTO measurements (molecule, classification) VALUES
  ('Cc1ccc(-c2cc(-c3ccco3)c(C#N)c(=O)n2C2OC(OC(=O)c3ccccc3)C(OC(=O)c3ccccc3)C2OC(=O)c2ccccc2)cc1 (configuration not stated)', 'No'),
  ('O=C(Nc1cccc(Cc2cccc(NC(=O)c3ccccc3)c2)c1)c1ccccc1', 'No'),
  ('COc1cc2c(cc1OC)CCN=C2', 'No'),
  ('CSc1snc2sc3c(Cl)nnnc3c12', 'No'),
  ('CC(=O)[C@]1(C)[C@H](C)O[C@](C)(CO)[C@H]1O[Si](C)(C)c1ccccc1', 'No'),
  ('C=C1C[C@@H](O)[C@@H](Br)C(C)(C)[C@]12CCC(C)(Cl)C(Br)C2 (some centres not stated)', 'No'),
  ('O=C(O)Cc1cc(O)c(CC(=O)O)cc1O', 'No'),
  ('O=C(O)CN1CCNCCNCC1', 'No'),
  ('COc1ccc(C2CC(c3c(O)ccc4ccccc34)=NN2)cc1OC (configuration not stated)', 'No'),
  ('CC1(C)CC(O)C(C)(C)[C@@H](O)C1 (some centres not stated)', 'No'),
  ('CSc1nc(Cl)c2c(n1)Sc1ncnn1C2O (configuration not stated)', 'No'),
  ('CC1(Br)C(=O)NC(=O)N(C2CC(N=[N+]=[N-])C(CO)O2)C1N=[N+]=[N-] (configuration not stated)', 'No'),
  ('Cc1csc2nc3[nH]ncc3c(=O)n12', 'No'),
  ('CC(C)(C)[Si](C)(C)OCC1OC(n2cnc3c(N)ncnc32)CC1O (configuration not stated)', 'No'),
  ('N#CC(=C1C=CC(=NO)C=C1)c1ccc(Cl)cc1', 'No'),
  ('CCCCCCNC(=O)c1cc(C#Cc2cc(OC)ccc2OC)ccc1OC', 'No'),
  ('[O-][n+]1c2c([n+]([O-])c3ccccc31)-c1cccc3cccc-2c13', 'No'),
  ('C=C(C(=O)OC)[C@@H]1C[C@@H](OC(C)=O)C2=C[C@H](C[C@@]3(C)O[C@@H]3C3=CC(C)=C(O3)[C@H]1OC(C)=O)OC2=O', 'No'),
  ('CC1=C(N2CC2)C(=O)c2nc3n(c2C1=O)CCC3O (configuration not stated)', 'Yes'),
  ('CON(C)C(=O)C(C)NC(=O)OC(C)(C)C (configuration not stated)', 'No'),
  ('C/C=C/C=C/c1nc(C#N)c(N)o1', 'No'),
  ('Oc1cn(-c2ccc(Cl)cc2)nc1-c1n[nH]c(=S)n1-c1ccccc1', 'No');

====

Tested on: IGROV-1
Method description: NCI tumour cell line growth inhibition, 48 h
Calls of active or inactive are those of the source. Cut-off read from the data, not from the text of the source: active = GI50 up to about 1.1 µM and inactive = higher.
Parameter GI50: see the listing below.
Measured metric: GI50

INSERT INTO results (compound, result) VALUES
  ('COC(=O)C1=CSC2(S1)C(C(=O)OC)=CSc1c2ssc1=O (stereo not given)', '1.66 µM (inactive)'),
  ('O=C1NCN(c2ccccc2)C12CCN(CC1COc3ccccc3O1)CC2 (stereo not given)', '27.5 µM (inactive)'),
  ('O=C(O)c1cc(-c2ccc3c(O)c(O)ccc3c2)ccc1O', '40.5 µM (inactive)'),
  ('C#CCSc1nc(-c2ccco2)n[nH]1', '48.5 µM (inactive)'),
  ('COC(=O)C(CNC(=O)/C=C/c1ccc(OC(C)=O)c(OC(C)=O)c1)NC(=O)/C=C/c1ccc(OC(C)=O)c(OC(C)=O)c1 (stereo not given)', '> 100 µM (inactive)');

====

System: COLO 205
Method description: NCI tumour cell line growth inhibition, 48 h
Active and inactive are the calls of the source. Rule as the data show it: active = GI50 up to about 1.1 µM and inactive = higher.
Classes used: yes (1) = active, no (0) = inactive

INSERT INTO results (compound, classification) VALUES
  ('O=C1CC(c2ccccc2)=Nc2ccccc2N1', 'no (0)'),
  ('C[n+]1c(-c2ccc(/C=N\NC(=O)c3ccc(C(=O)N/N=C/c4ccc(-c5cn6ccsc6[n+]5C)cc4)cc3)cc2)cn2ccsc21', 'no (0)'),
  ('O=c1ccc2nc3cc(Br)ccc3sc-2c1', 'no (0)'),
  ('CC(C)(C)OC(=O)N1CC(COS(C)(=O)=O)c2ccc(O)cc21 (centres undefined)', 'no (0)'),
  ('Cc1nn2c(C(=O)N/N=C/c3ccc([N+](=O)[O-])cc3)c(C)nc2s1', 'no (0)'),
  ('CN1C/C(=C\c2cccs2)C(O)/C(=C/c2cccs2)C1 (centres undefined)', 'no (0)'),
  ('CCCCCCCCCOC(=O)c1cnc(Cl)cn1', 'no (0)'),
  ('Cc1cn(C2CC(N=[N+]=[N-])C(C(=O)O)O2)c(=O)[nH]c1=O (centres undefined)', 'no (0)'),
  ('CC(=O)O[C@H]1C(=O)[C@@]2(C)[C@H]([C@H](OC(=O)c3ccccc3)[C@]3(O)C[C@H](OC(=O)[C@H](O)[C@@H](NC(=O)OC(C)(C)C)c4ccco4)C(C)=C1C3(C)C)[C@]1(OC(C)=O)CO[C@@H]1C[C@@H]2O', 'yes (1)');

====

System: K562
Method description: NCI tumour cell line growth inhibition, 48 h
The source made the active and inactive calls. Rule as the data show it: active = GI50 up to about 1.1 µM and inactive = higher.
Classes used: 1 for active, 0 for inactive

INSERT INTO results (molecule, classification) VALUES
  ('Cc1noc(C)c1-n1nc2ccc3nonc3c2n1', 0),
  ('CC1CCC(C(C)C2C(O)CC3C4CC=C5CC(O)CCC5(C)C4CCC32C)NC1 (stereo unspecified)', 0),
  ('CC1(C)CC(N2CCN(C3CC(C)(C)NC(C)(C)C3)CC2)CC(C)(C)N1', 0),
  ('CCCCCCCCCCCCCCCCCC(=O)Nc1ccn(C2OC(CO)C(O)C2O)c(=O)n1 (stereo unspecified)', 0),
  ('COc1cc2c3cc1Oc1c(OC)c(OC)cc4c1[C@@H](Cc1ccc(O)c(c1)Oc1ccc(cc1)C[C@@H]3N(C)CC2)N(C)CC4.c1ccccc1', 0),
  ('CC1=NN(C2=NS(=O)(=O)c3ccccc3N2C)C(=O)C1', 0),
  ('O=C(O)CNc1cc(-c2ccccc2)nc(NCC(=O)O)n1', 0),
  ('C=CC(C)CCC(C/C=C(\C)CCC=C(C)C)C(=C)CCCC(C)C (stereo unspecified)', 0),
  ('CCCCNC(=S)N/C=C1\C(=O)Nc2ccccc2C1=O', 0),
  ('Cc1cccc2c(N)c3cccc(C(=O)NCC[N+](C)(C)Cc4ccc(S(C)(=O)=O)cc4)c3nc12', 0),
  ('Nc1ccc(S(=O)(=O)NCc2nccs2)cc1', 0),
  ('O=C(O)c1ccccc1/C=C1\Cc2ccccc2C1=O', 0),
  ('COc1cc(C2c3cc4c(cc3OC(NN)C2C)OCO4)cc(OC)c1O (stereo unspecified)', 0),
  ('CC(=O)NC1C(=O)CC(c2ccccc2)N(C)C1c1ccccc1 (stereo unspecified)', 0),
  ('COc1ccc(C[C@H]2NC[C@H](O)[C@H]2OC(C)=O)cc1 [ANISOMYCIN]', 1),
  ('Cc1ccc(S(=O)(=O)c2ccc(C)cc2[N+](=O)[O-])c([N+](=O)[O-])c1', 0),
  ('Cc1nn(C2OC(CO)C(O)C(F)C2O)c(=O)[nH]c1=O (stereo unspecified)', 0),
  ('O=C(/C=C(\N=P(c1ccccc1)(c1ccccc1)c1ccccc1)C(F)(F)C(F)(F)C(F)(F)C(F)(F)C(F)(F)C(F)(F)C(F)(F)F)c1ccccc1', 0),
  ('c1ccc(/N=C2\SC(c3ccccc3)CN2C23CC4CC(CC(C4)C2)C3)cc1 (stereo unspecified)', 0),
  ('C/C(=C\Cc1cc(O)ccc1O)CCc1c(C)cc(O)c(C=O)c1C [PANICEIN B3]', 0),
  ('CC1(C)OC2C(=O)C=C(COCc3ccccc3)C2O1 (stereo unspecified)', 0);
